Where these numbers come from: paper PMC3325938

System: P. falciparum asexual forms (3D7A)
Assay: In vitro antiplasmodial activity on asexual stages (uptake of radiolabeled nucleic acid precursor), 3D7A
Type: cell-based, Plasmodium falciparum
Conditions: Plasmodium falciparum; mean ± SD, 3–6 independent experiments; serum-free (AlbuMAX II); read-out: IC50 Activity against asexual forms (3D7A)
Here the recorded pIC50 is given for each entry.
For clarity, pIC50 is expressed as the negative log10 of concentration in mol/L.

C=C[C@H]1C[N@@]2CC[C@H]1C[C@H]2[C@H](O)c1ccnc2ccc(OC)cc12 [Quinine] ... 7.18
O=C1C(O)=C([C@H]2CC[C@H](c3ccc(Cl)cc3)CC2)C(=O)c2ccccc21 [Atovaquone] ... 9.15

We next turn to a different compound, shown below.
Exercise: // Input: COc1ccc2nc3cc(Cl)ccc3c(Nc3cc(CN4CCCC4)c(O)c(CN4CCCC4)c3)c2n1 [Pyronaridine] . Output its pIC50 only.
Solution: 8.35
